- experiment.notes: growth suppression of PTEN-deleted HCT116, pilot screen, cell-based, HCT116 clonal line, CellTiter-Glo (AID 824);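 also: 0% = 20 µM Hyamine control and 100% = vehicle cell control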
- measurement.setup: 60 h, at 10 µM, stronger effect = lower value
Inconclusive results are not listed.
Catalogue of compounds with associated viability
Entry rule: numbers only, all in %.

Completed entries (count: 5):
# compound, viability, %
records = [
    ("O=C(CCNS(=O)(=O)c1cccc2nsnc12)NCCC1=CCCCC1", 94.8),
    ("c1ccc(Nc2nc3ccccc3n3cnnc23)cc1", 84.6),
    ("O=C(CCn1c(=O)oc2ccccc21)Nc1cccc(Cl)c1", 96.4),
    ("Cc1ccc(NC(=O)NCCN2C(=O)C3C4C=CC(C4)C3C2=O)cc1 (configuration not stated)", 102),
    ("C1CCC(Nc2nnnn2C2CCCCC2)CC1", 92.5),
]

Sample "CN1CCN(S(=O)(=O)c2ccc3ccccc3c2)CC1" ; viability observed: 105

Sample "Cn1c(Cn2c(=O)sc3ccccc32)nnc1SCC(=O)NCc1ccc(F)cc1" ; viability observed: 95

Sample "CN(C)CCNC(=O)c1ccc2c(c1)N(Cc1ccc(F)cc1)CCS2" ; viability observed: 55.1

Sample COc1ccc(OC)c(C2CC(=O)c3c([nH]c(C(=O)OC(C)C)c3C)C2)c1 (configuration not stated) ; viability observed: 14.8

Sample Cc1ccc(C2CC(c3ccccc3)n3ncnc3N2)cc1 (configuration not stated) ; viability observed: 98.8

Sample "O=C(NCCCNC(=O)c1ccco1)c1ccco1" ; viability observed: 107

Sample Cc1c(C(=O)NCC2CCCO2)sc2nc(-c3ccc(F)cc3)cn12 (configuration not stated) ; viability observed: 97.3

###

Catalogue of compounds with associated RAM network inhibition
- experiment.notes: RAM signaling pathway blockade in yeast – S. cerevisiae, Pdr1DBD-CYC8 efflux-inhibited sensitized strain, primary screen (AID 1298);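 also: 0% = DMSO untreated cells without growth and 100% = 10 µM 1-NA-PP1 full growth; higher means more yeast growth rescued from 5-FOA killing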
- measurement.setup: S. cerevisiae cbk1-as DSE1-URA3 strain, 5-FOA growth OD615, 2 d; at 50 µM; stronger effect = higher value
Activity calls are given as the source filed them.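 The calls were made as follows: active = RAM network inhibition above 8.4% in each of two replicates, 3 SD over the compound average; inconclusive = above 8.4% inhibition in only one replicate; inactive = 8.4% inhibition or less in each replicate.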

# compound, value.kind, meas.value
measured = [
    ("CCP(=O)(c1ccccc1)C(C)(C)O (configuration not stated)", "RAM network inhibition", "-0.68% (inactive)"),
    ("N#Cc1nc(-c2ccccc2F)oc1NC1CCCCC1", "RAM network inhibition", "6% (inactive)"),
    ("O=c1[nH]cnc2c1sc(=S)n2-c1ccccc1", "RAM network inhibition", "8.71% (inactive)"),
    ("CN=C(NC)SC1CC(=O)N(c2ccccc2)C1=O (configuration not stated)", "RAM network inhibition", "1.02% (inactive)"),
    ("O=C(Nc1ccccc1)OCCOc1ccccc1", "RAM network inhibition", "1.95% (inactive)"),
    ("CCN(CC)CC(=O)n1c2c(c3ccccc31)CCCC2", "RAM network inhibition", "0.67% (inactive)"),
    ("COCCNC(=O)CN(c1cc(C(F)(F)F)ccc1Cl)S(C)(=O)=O", "RAM network inhibition", "0.87% (inactive)"),
    ("Cn1cccc1Cc1nnc(SCC(=O)N2CCCCCC2)n1CCc1ccccc1", "RAM network inhibition", "2.94% (inactive)"),
    ("CCOC(=O)Cc1csc(NC(=O)CN(C)S(=O)(=O)c2cccc3cccnc23)n1", "RAM network inhibition", "4.44% (inactive)"),
    ("C=CCNC(=O)C1CC(=O)N(c2ccc(Br)cc2)C1 (configuration not stated)", "RAM network inhibition", "0.56% (inactive)"),
]

Sample CCCCNC(=O)CS(=O)Cc1nc(-c2cccc(Cl)c2)oc1C (configuration not stated) ; RAM network inhibition observed: 6.02% (inactive)

Sample "Cc1ccnc(SCCn2c(N3CCN(c4ccccc4)CC3)nc3c2c(=O)[nH]c(=O)n3C)n1" ; RAM network inhibition observed: 4.01% (inactive)

Where these numbers come from: PubChem BioAssay
